The reported numbers originate from the supplement of paper PMC5919970.

- System: TYKNU
- measurement_notes: fractional viability relative to vehicle; higher = less growth inhibition
- condition: 2uM; 72 h; genotype: OPA1 knockout (sgOPA1 #2)
In all, about 2,000 compounds were measured (“fractional viability relative to vehicle”: median about 0.92, lowest 2% from about 0.11 on). What follows is part of a selection rich in the lowest values, with near analogues and random picks from the rest.
Binning of fractional viability into classes: low end = under 0.8, middle = from 0.8 up to 1, high end = 1 and over

{"compound": "Cc1ccc(C(=O)Nc2ccc(CN3CCN(C)CC3)c(C(F)(F)F)c2)cc1C#Cc1cnc2cccnn12", "class_assignment": "low end"}
{"compound": "COc1cc(/C=C/C(=O)N2CCC=CC2=O)cc(OC)c1OC [Piperlongumine]", "class_assignment": "low end"}
{"compound": "CCc1ccc(OCc2ccccc2C(=O)Nc2ccc3nc(C)cc(N)c3c2)cc1", "class_assignment": "low end"}
{"compound": "Cc1noc(C)c1-c1ccc(-c2cc(C(N)=O)c(NC(N)=O)s2)c(O[C@H]2CCNC2)c1", "class_assignment": "middle"}
{"compound": "COc1cc(-c2cc(-c3ccc(N4CCNCC4)cc3)cnc2C)cc(OC)c1OC", "class_assignment": "middle"}
{"compound": "COc1ncc(-c2ccc3nccc(-c4ccnnc4)c3c2)cc1NS(=O)(=O)c1ccc(F)cc1F", "class_assignment": "low end"}
{"compound": "Cc1ccc([N+](=O)[O-])cc1S(=O)(=O)N(C)/N=C/c1cnc2ccc(Br)cn12", "class_assignment": "low end"}
{"compound": "OCCOc1ccc(/C(=C(/CCCl)c2ccccc2)c2ccccc2)cc1 [Ospemifene]", "class_assignment": "middle"}

Input line: Lab log: C=C1C(=O)O[C@@H]2/C=C(\C)CC/C=C(\C)CC[C@@H]12 [Costunolide] — assign fractional viability category
Output line: high end

Input line: Lab log: C[C@H](NC(=O)[C@@H](O)c1cc(F)cc(F)c1)C(=O)N[C@@H]1C(=O)N(C)c2ccccc2-c2ccccc21 — assign fractional viability category
Output line: high end

###

- System: TYKNU
- measurement_notes: fractional viability relative to vehicle; TYKNU is a high-grade serous ovarian cancer line; higher = less growth inhibition
- condition: 10uM; 72 h; genotype: OPA1 knockout (sgOPA1 #2)
Whole data set: some 2,000 compounds, median “fractional viability relative to vehicle” near 0.92, cut for the lowest 2% near 0.11. For the sample, the lowest values were picked, then their nearest neighbours and some compounds at random.
property: fractional viability
Enter the number alone.

{"smiles_representation": "c1cc(-c2cnn3cc(-c4ccc(N5CCNCC5)cc4)cnc23)c2cccnc2c1", "property": "fractional viability", "quantitative_readout": 0.0761}
{"smiles_representation": "COc1cc(-c2cc(-c3ccc(N4CCNCC4)cc3)cnc2C)cc(OC)c1OC", "property": "fractional viability", "quantitative_readout": 0.835}
{"smiles_representation": "COc1ccc(-c2cnc3c(-c4cccc5ncccc45)cnn3c2)cc1", "property": "fractional viability", "quantitative_readout": 1.2}
{"smiles_representation": "O=C(CCCCCCC(=O)Nc1ccc([C@H]2O[C@@H](CSc3nc(-c4ccccc4)c(-c4ccccc4)o3)C[C@@H](c3ccc(CO)cc3)O2)cc1)NO", "property": "fractional viability", "quantitative_readout": 0.628}

Input line: Which fractional viability is listed for CC(C)C[C@@H]1NC(=O)[C@@H](C(C)C)NC(=O)[C@@H]2CCCN2C(=O)[C@@H](CC(=O)O)NC(=O)[C@@H](Cc2c[nH]c3ccccc23)NC1=O ?
Output line: 0.866
